# Test summary: Trypanosoma cruzi replication blockers in host cells – luminescence, NIH3T3 host cells, primary screen (AID 1885);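 further: signal also drops with host cell toxicity which is not excluded here; 0% = plate median of DMSO wells and 100% = zero luminescence signal; higher percent means less beta-gal luminescence so fewer parasites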
# Stated conditions: T. cruzi beta-gal in NIH3T3, luminescence, 90 h; stronger effect = higher value; concentration not given here
Screen size: about 300,000 compounds; about 4,400 (1.5%) were called active. The sample holds actives, similar compounds and a random draw of the others, so the mix is not that of the screen.
Provide the reported inhibition of each item.

Given the compound COc1cccc(CN2CCCC(C(=O)c3ccccc3SC)C2)c1O (stereo not drawn) , what is its reported inhibition?
0.0491% (inactive)

Another compound: CCC/C(=N\O)c1c[nH]c2ccccc12
-2.44% (inactive)

Another compound: C=CCN1C(=O)NC(=O)/C(=C/c2ccc(OCC(=O)Nc3ccc(C)cc3)cc2)C1=O
12.8% (inactive)

Another compound: COc1ccc(-n2c(O)c(C(C)=Nc3ccc4c(c3)CCC4)c(=O)[nH]c2=O)cc1
-27.7% (inactive)

Another compound: Cc1ccc(C)c(NC2=NCCCS2)c1
8.9% (inactive)

Another compound: C[C@@]1([C@@H](NP(=O)(c2ccccc2)c2ccccc2)c2ccccc2)C[C@H]1CCO
1% (inactive)

Another compound: CC1=C(C(=O)Nc2ccccc2)SCCO1
-24.2% (inactive)

Another compound: CC(=O)c1c(O)n(C2CCCCCC2)c(=O)[nH]c1=O
-10.9% (inactive)

Another compound: COc1ccc(Br)cc1CNCCc1cccc(Cl)c1
56.8% (active)

Another compound: COc1ccccc1-n1c(O)c(C=NC2CC2)c(=O)[nH]c1=O
-10.6% (inactive)

Another compound: COc1cccc(OC)c1C(=O)NC(=S)N1C[C@H]2C[C@H](C1)c1cccc(=O)n1C2
0.307% (inactive)

Another compound: COc1ccc(CNCCc2c[nH]c3ccccc23)cc1OC
8.16% (inactive)

Another compound: CCOc1ccc(-c2cc(C)[n+](CCN(CC)CC)c(-c3ccc(OCC)cc3)c2)cc1
64.1% (active)

Another compound: Cc1ccc(-c2nn(CCC#N)cc2C(=O)O)cc1C
-14.3% (inactive)

Another compound: COC(=O)C(c1ccccc1)N1CCCCCC1 (stereo not drawn)
-2.88% (inactive)

Another compound: O=C(NC(c1ccc(Cl)cc1)P(=O)(Oc1ccccc1)Oc1ccccc1)OCc1ccccc1 (stereo not drawn)
12.3% (inactive)

Another compound: O=C1N=c2ccccc2=C/C1=C\c1c(O)[nH]c(=S)[nH]c1=O
-14% (inactive)

Another compound: CCc1nc2ccccc2c(=O)n1-c1cccc(OC)c1
-3.64% (inactive)

Another compound: CCCCCCCCCCCCn1ccc(=N)cc1
58.9% (active)

Another compound: COc1ccccc1N1CCN(C(CNC(=O)Oc2ccccc2)c2cccnc2)CC1 (stereo not drawn)
61.2% (active)

Another compound: CC1=CC(=Cc2sc3ccccc3[n+]2C)C=C(C)O1
81.1% (active)

Another compound: COc1ccc(N2C(=O)/C(=C/c3ccco3)C(=O)NC2=S)cc1
-2.75% (inactive)

Another compound: CC(C)Oc1cccc(C(=O)C2CCCN(C3CCOCC3)C2)c1 (stereo not drawn)
-14% (inactive)
